Measured % survival (cynomolgous monocytes with huCSF-1, 5 µg/ml antibody) by item
Experimental system: CSF-1R of cynomolgous monocytes (cynomolgous)
Measurement notes: cell-based or functional assay
Supply the numeric figure in %, leaving out any unit text.

Examples with their reported % survival (cynomolgous monocytes with huCSF-1, 5 µg/ml antibody) follow.
1) Mab 2E10 (antibody, V domains shown) VH: QVQLKESGPGLVAPSKSLSITCTVSGSSLDSFDISWIRQSPGKGLEWLGVIWTGGGTNYNSGFMSRLRITKDNSKSQVLLKMNSLQSDDTAIYYCVRDPRLYFDVWGAGTTVTVSS VL: NIVMTQSPKSMSMSVGERVTLSCKASEDVVTYVSWYQQKPDQSPKLLIYGASNRYTGVPDRFTGSGSATDFTLTISSVQAEDLADYYCGQTFSYPTFGTGTKLEIK; 17
2) Mab 2H7 (antibody, V domains shown) VH: QVQLKESGPGLVAPSKSLSITCTVSGSSLDSFDISWIRQPPGKGLEWLGVIWTGGGTNYNSGFMSRLRISKDNSKSQVFLKMSSLQSDDTAIYYCVRDPRLYFDVWGAGTTVTVSS VL: NIVMTQSPKSMSMSVGERVTLSCKASEDVVTYVSWYQQKPEQSPKLLIYGASNRYTGVPDRFTGSGSATDFTLTISSIQAEDLADYYCGQTFSYPTFGTGTKLEIK; 8
3) Mab 2F11 (antibody, V domains shown) VH: QVQLKESGPGLVAPSQSLSITCTVSGFSLTTYDISWIRQSPGKGLEWLGVIWTDGGTNYNSPFMSRLSIRKDNSKSQVFLKMNRLQTDDTAIYYCVRDQRLYFDVWGAGTTVTVSS VL: NIVMTQSPKSMSMSVGERVTLNCKASEDVNTYVSWYQQQPEQSPKLLIYGASNRYTGVPDRFTGGGSTTDFTLTISSVQAEDLADYFCGQSFSYPTFGTGTKLEIK; 4

Continue with the next binder.
Input: Fill blank: measured % survival (cynomolgous monocytes with huCSF-1, 5 µg/ml antibody) of the binder Mab 1G10 (antibody, V domains shown) VH: RVQLKESGPGLVAPSQSLSITCTVSGFSLTSYDISWIRQSPGKGLEWLGVIWSGGGTNYNSPFMSRLRISKDDSRSQVFLKVNRLQTDDTAIYYCVRDLRLYFDVWGAGTTVTVSS VL: KIVMTQSPKSMSVSVGERVSLSCKASEDVGTYVSWYQQKPEQSPKLLIYGSSNRYTGVPDRFTGSGSATDFTLTISSVQAEDLADYSCGQSFTYPTFGTGTKLEIK is ____.
Output: 2
